All figures here come from the supplement of paper PMC6555819.

Test system: RARa:RXR (NR concentration 270 nM, RXRa partner concentration 90 nM)
method-description: PBM binding z-score (relative to random genomic background probes); higher = stronger binding; sequences stand for … in GC…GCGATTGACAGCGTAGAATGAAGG
recorded-metric: PBM binding z-score

Given the sequence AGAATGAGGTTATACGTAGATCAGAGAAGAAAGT , what is its reported PBM binding z-score?
1.51

Given the sequence CCTACTGGGCCAAGGTCACTGATCAGTCAAAGCA , what is its reported PBM binding z-score?
3.49

Given the sequence ACTAGTCGGTCAGCTGAGGTCACACACAATTCGG , what is its reported PBM binding z-score?
4.69

Given the sequence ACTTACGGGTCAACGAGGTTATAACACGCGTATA , what is its reported PBM binding z-score?
5.84

Given the sequence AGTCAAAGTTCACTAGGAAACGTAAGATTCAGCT , what is its reported PBM binding z-score?
2.66

Given the sequence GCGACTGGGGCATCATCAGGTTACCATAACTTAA , what is its reported PBM binding z-score?
1.05

Given the sequence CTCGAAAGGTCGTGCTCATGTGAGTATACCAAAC , what is its reported PBM binding z-score?
4.03

Given the sequence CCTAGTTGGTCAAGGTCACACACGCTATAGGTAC , what is its reported PBM binding z-score?
4.88

Given the sequence ATATGTAGGTTAGCTGCGGTCATTCAGACTAGGC , what is its reported PBM binding z-score?
1.21

Given the sequence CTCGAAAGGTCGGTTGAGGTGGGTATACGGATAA , what is its reported PBM binding z-score?
1.53

Given the sequence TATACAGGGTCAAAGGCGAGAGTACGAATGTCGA , what is its reported PBM binding z-score?
4.91

Given the sequence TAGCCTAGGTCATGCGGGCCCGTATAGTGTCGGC , what is its reported PBM binding z-score?
2

Given the sequence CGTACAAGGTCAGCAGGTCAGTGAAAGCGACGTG , what is its reported PBM binding z-score?
5.17

Given the sequence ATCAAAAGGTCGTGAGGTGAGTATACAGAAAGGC , what is its reported PBM binding z-score?
4.34

Given the sequence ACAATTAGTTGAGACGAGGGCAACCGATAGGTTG , what is its reported PBM binding z-score?
1.13

Given the sequence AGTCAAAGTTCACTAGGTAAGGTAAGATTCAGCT , what is its reported PBM binding z-score?
3.3

Given the sequence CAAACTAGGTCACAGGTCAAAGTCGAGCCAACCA , what is its reported PBM binding z-score?
5.81

Given the sequence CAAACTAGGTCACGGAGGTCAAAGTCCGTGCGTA , what is its reported PBM binding z-score?
7.02

Given the sequence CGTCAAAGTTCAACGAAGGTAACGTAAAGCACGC , what is its reported PBM binding z-score?
3.37

Given the sequence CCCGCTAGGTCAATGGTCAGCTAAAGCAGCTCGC , what is its reported PBM binding z-score?
1.91

Given the sequence CCTAGTTGGTCAGGAGGTCACACAGCGGATATGA , what is its reported PBM binding z-score?
5.39

Given the sequence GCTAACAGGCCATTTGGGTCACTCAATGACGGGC , what is its reported PBM binding z-score?
1.03

Given the sequence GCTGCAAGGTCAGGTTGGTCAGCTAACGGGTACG , what is its reported PBM binding z-score?
3.02

Given the sequence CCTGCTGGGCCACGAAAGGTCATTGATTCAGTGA , what is its reported PBM binding z-score?
5.76

Given the sequence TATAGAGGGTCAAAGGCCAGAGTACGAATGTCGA , what is its reported PBM binding z-score?
5.1

Given the sequence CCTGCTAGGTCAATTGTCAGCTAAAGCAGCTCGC , what is its reported PBM binding z-score?
1.34

Given the sequence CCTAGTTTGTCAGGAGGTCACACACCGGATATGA , what is its reported PBM binding z-score?
5.02

Given the sequence TCATCTAGGTAAATGCTAGGTGAAAGTCCGATCT , what is its reported PBM binding z-score?
0.578

Given the sequence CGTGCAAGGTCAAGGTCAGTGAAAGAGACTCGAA , what is its reported PBM binding z-score?
5.11

Given the sequence GCTATTAGTTGAAAGGACAACCGAATGATTCTCG , what is its reported PBM binding z-score?
-0.189

Given the sequence AGAATGAGGTTAAGATCACGGAAACAGAATACAT , what is its reported PBM binding z-score?
2.31

Given the sequence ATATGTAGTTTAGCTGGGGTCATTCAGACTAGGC , what is its reported PBM binding z-score?
5.81

Given the sequence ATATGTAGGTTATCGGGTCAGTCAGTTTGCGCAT , what is its reported PBM binding z-score?
2.6

Given the sequence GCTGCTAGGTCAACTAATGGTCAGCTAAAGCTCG , what is its reported PBM binding z-score?
2.35

Given the sequence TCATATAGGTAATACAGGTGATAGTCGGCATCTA , what is its reported PBM binding z-score?
0.723

Given the sequence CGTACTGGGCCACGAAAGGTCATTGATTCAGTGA , what is its reported PBM binding z-score?
5.78
